- Tested on: KM 12
- assay_info: in vitro colon cancer cell growth inhibition (NCI screen)
endpoint: cytotoxicity log GI50 (M)
Answer in M, number only, no unit symbol.

*Q* Quick check: cytotoxicity log GI50 of CCn1c(C)nc2c1C(=O)c1ccccc1C2=O [Compound 5] ?
*A* -5.76

*Q* Quick check: cytotoxicity log GI50 of O=C(O)CCCc1nc2c(n1-c1ccccc1)C(=O)c1ccccc1C2=O [Compound 58] ?
*A* -4.50

*Q* Quick check: cytotoxicity log GI50 of CCCC(=O)NC1=C(NCC)C(=O)c2ccccc2C1=O [Compound 46] ?
*A* -4.28

*Q* Quick check: cytotoxicity log GI50 of O=C(Cc1ccccc1F)NC1=C(Cl)C(=O)c2ccccc2C1=O [Compound 2i] ?
*A* -6.29
